Biological target: p45 v-abl kinase (Abelson murine leukemia virus)
Construct: by cited methods bacterially expressed (E. coli)
Test: p45 v-abl Kinase Assay ((Val^5)-Angiotensin II phosphorylation, in vitro)
Property label: IC50 (nM)
Give the value, in units of nM, as a plain number.

Query for p45 v-abl kinase (Abelson murine leukemia virus): what IC50 does the record show for Cc1[nH]c2ccccc2c1C=C1C(=O)Nc2ccccc21 [FCE 27566] ?
15600

Now consider N#Cc1ccc2[nH]cc(C=C3C(=O)Nc4ccccc43)c2c1 [FCE 27565] and answer again.
2400

Now consider O=C1Nc2ccc(O)cc2C1=Cc1ccc(O)c2c1CCCC2 [FCE 28337] and answer again.
2320

Now consider Nc1ccc2c(c1)C(=Cc1ccc(O)c3ncccc13)C(=O)N2 [FCE 27518] and answer again.
6900

Now consider COc1ccc2[nH]cc(C=C3C(=O)Nc4ccccc43)c2c1 [FCE 27564] and answer again.
800

---

Target: p45 v-abl kinase (Abelson murine leukemia virus, UniProt P00521)
Construct: by cited methods bacterially expressed (E. coli)
Sequence (P00521 whole entry): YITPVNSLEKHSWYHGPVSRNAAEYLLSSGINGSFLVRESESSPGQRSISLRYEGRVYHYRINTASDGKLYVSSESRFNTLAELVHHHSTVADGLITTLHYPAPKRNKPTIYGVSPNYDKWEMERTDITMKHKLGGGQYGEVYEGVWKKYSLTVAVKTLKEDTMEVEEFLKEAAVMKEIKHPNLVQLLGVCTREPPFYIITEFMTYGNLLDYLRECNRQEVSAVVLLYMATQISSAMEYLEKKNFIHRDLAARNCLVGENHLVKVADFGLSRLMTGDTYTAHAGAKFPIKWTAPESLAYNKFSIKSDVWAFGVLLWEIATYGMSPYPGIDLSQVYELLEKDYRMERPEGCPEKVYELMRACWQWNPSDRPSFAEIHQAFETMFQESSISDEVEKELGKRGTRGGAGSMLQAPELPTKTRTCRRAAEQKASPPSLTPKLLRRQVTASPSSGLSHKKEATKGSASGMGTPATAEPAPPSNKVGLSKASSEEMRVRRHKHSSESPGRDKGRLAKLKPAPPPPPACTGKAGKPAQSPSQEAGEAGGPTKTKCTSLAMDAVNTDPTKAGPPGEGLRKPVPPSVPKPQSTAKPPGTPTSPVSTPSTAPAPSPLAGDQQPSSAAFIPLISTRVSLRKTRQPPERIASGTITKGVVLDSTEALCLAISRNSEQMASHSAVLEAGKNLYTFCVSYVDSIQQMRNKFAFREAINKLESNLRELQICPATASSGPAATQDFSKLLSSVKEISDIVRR
Experiment: p45 v-abl Kinase Assay ((Val^5)-Angiotensin II phosphorylation, in vitro)
Property label: pIC50
Please treat pIC50 as minus the base-10 logarithm of the molar concentration.

// solved cases for pIC50 follow
O=C1Nc2ccccc2C1=Cc1c[nH]c2ccc(O)cc12 [FCE 27866] ... 5.28
COc1ccc2[nH]cc(C=C3C(=O)Nc4ccc(N)cc43)c2c1 [FCE 28436] ... 6.52
Nc1ccc2c(c1)C(=Cc1cc(O)c3c(c1O)CCCC3)C(=O)N2 [FCE 28360] ... 5.33
COc1ccc2[nH]cc(C=C3C(=O)Nc4ccc(O)cc43)c2c1 [FCE 28359] ... 6.41

Pending compound:
What value of measured pIC50 is listed for O=C1Nc2ccc(Br)cc2C1=Cc1ccc(O)c2ncccc12 [FCE 27996] ?
5.59

From: patent US5656654A
